Can you tell me IC50 for the items I'm about to list?
biological target: cDNA-expressed human hepatic CYP3A4 (Homo sapiens (Human), UniProt P08684); assay: Measurement of CYP (IC50 of P450 CYP3A4), BFC substrate; format: in vitro ADME; settings: 20 minutes
Sequence (P08684 whole entry): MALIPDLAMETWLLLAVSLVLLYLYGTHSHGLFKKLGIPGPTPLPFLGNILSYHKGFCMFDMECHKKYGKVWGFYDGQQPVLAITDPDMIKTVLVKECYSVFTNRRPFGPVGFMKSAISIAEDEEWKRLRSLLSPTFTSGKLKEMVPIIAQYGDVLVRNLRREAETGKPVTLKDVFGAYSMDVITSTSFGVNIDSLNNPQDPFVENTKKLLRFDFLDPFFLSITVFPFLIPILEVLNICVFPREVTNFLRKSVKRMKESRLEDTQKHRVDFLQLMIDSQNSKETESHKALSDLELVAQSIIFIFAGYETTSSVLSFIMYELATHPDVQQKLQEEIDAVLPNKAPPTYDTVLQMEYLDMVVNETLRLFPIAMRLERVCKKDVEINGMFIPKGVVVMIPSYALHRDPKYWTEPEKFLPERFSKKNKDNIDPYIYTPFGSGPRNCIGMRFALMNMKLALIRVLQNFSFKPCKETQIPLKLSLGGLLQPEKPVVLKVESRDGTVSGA
# unit: µM | format: bare number

For C=CCN1CC(=O)N2[C@@H](Cc3ccc(O)cc3)C(=O)N(Cc3cccc4c(C(=O)N5CCN6CCN(C(=O)OC(C)(C)C)CC6C5)cn(C)c34)C[C@@H]2N1C(=O)NCc1ccccc1 (stereo partly drawn) , what is its reported IC50?
2.2

For `C=CCN1CC(=O)N2[C@@H](Cc3ccc(O)cc3)C(=O)N(Cc3cccc4c(-c5ccc(C#N)cc5)cn(C)c34)C[C@@H]2N1C(=O)NCc1ccccc1` , what is its reported IC50?
9.33

* * *

target: cDNA-expressed human hepatic CYP3A4 (Homo sapiens (Human)); test: Measurement of CYP (IC50 of P450 CYP3A4), BFC substrate; assay type: in vitro ADME; conditions: 20 minutes
// boundary case: IC50 equal to 3 µM maps to not fulfilled; strictly smaller maps to fulfilled

Lab log: compare recorded IC50 with 3 µM; is it strictly lower for `C=CCN1CC(=O)N2[C@@H](Cc3ccc(O)cc3)C(=O)N(Cc3cccc4c(C(=O)Nc5ccc(N6CCC(OC)CC6)nc5)cn(C)c34)C[C@@H]2N1C(=O)NCc1ccccc1` ?
fulfilled

Lab log: compare recorded IC50 with 3 µM; is it strictly lower for `C=CCN1CC(=O)N2[C@@H](Cc3ccc(O)cc3)C(=O)N(Cc3cccc4c(C(=O)N5CCN(CCN6CCCCC6)CC5)cn(C)c34)C[C@@H]2N1C(=O)NCc1ccccc1` ?
not fulfilled

Lab log: compare recorded IC50 with 3 µM; is it strictly lower for `C=CCN1CC(=O)N2[C@@H](Cc3ccc(O)cc3)C(=O)N(Cc3cccc4c(C(=O)N5CCN(CC6CCCC6)CC5)cn(C)c34)C[C@@H]2N1C(=O)NCc1ccccc1` ?
not fulfilled

Lab log: compare recorded IC50 with 3 µM; is it strictly lower for C=CCN1CC(=O)N2C(Cc3ccc(O)cc3)C(=O)N(Cc3cccc4c(C(=O)Nc5ccc(N6CCC(N7CCCCC7)CC6)nc5)cn(C)c34)CC2N1C(=O)NCc1ccccc1 (centres unmarked) ?
fulfilled

Lab log: compare recorded IC50 with 3 µM; is it strictly lower for `C=CCN1CC(=O)N2[C@@H](Cc3ccc(O)cc3)C(=O)N(Cc3cccc4c(C(=O)NCCCCOC)cn(C)c34)C[C@@H]2N1C(=O)NCc1ccccc1` ?
fulfilled

Lab log: compare recorded IC50 with 3 µM; is it strictly lower for `C=CCN1CC(=O)N2[C@@H](Cc3ccc(O)cc3)C(=O)N(Cc3cccc4c(-c5ccc(NC(=O)NCC(C)(C)C)nc5)cn(C)c34)C[C@@H]2N1C(=O)NCc1ccccc1` ?
fulfilled

Lab log: compare recorded IC50 with 3 µM; is it strictly lower for `C=CCN1CC(=O)N2[C@@H](Cc3ccc(O)cc3)C(=O)N(Cc3cccc4c(C(=O)NC5CCN(C(=O)OC(C)(C)C)CC5)cn(C)c34)C[C@@H]2N1C(=O)NCc1ccccc1` ?
not fulfilled

Lab log: compare recorded IC50 with 3 µM; is it strictly lower for `C=CCN1CC(=O)N2[C@@H](Cc3ccc(O)cc3)C(=O)N(Cc3cccc4c(-c5ccc(NC(=O)c6ccc(N)nc6)cc5)cn(C)c34)C[C@@H]2N1C(=O)NCc1ccccc1` ?
not fulfilled

Lab log: compare recorded IC50 with 3 µM; is it strictly lower for `C=CCN1CC(=O)N2[C@@H](Cc3ccc(O)cc3)C(=O)N(Cc3cccc4c(C(=O)N(CCO)CCNCCO)cn(C)c34)C[C@@H]2N1C(=O)NCc1ccccc1` ?
fulfilled

Lab log: compare recorded IC50 with 3 µM; is it strictly lower for `C=CCN1CC(=O)N2[C@@H](Cc3ccc(O)cc3)C(=O)N(Cc3cccc4c(C(=O)N5CCN(C(C)=O)CC5)cn(C)c34)C[C@@H]2N1C(=O)NCc1ccccc1` ?
not fulfilled

Lab log: compare recorded IC50 with 3 µM; is it strictly lower for `C=CCN1CC(=O)N2[C@@H](Cc3ccc(O)cc3)C(=O)N(Cc3cccc4c(C(=O)NCCN(CC)CC)cn(C)c34)C[C@@H]2N1C(=O)NCc1ccccc1` ?
not fulfilled

Data origin: patent US8940739B2
